# targetEntity: CFTR in F508del/MF-HBE cells (Homo sapiens, UniProt P13569, DEL508-508)
# Construct: human bronchial epithelial (HBE) cells derived from CF subjects heterozygous for F508del and a minimal function CFTR mutation; endogenous in cells
# Sequence (P13569 with tags, fused parts or gaps DEL508-508): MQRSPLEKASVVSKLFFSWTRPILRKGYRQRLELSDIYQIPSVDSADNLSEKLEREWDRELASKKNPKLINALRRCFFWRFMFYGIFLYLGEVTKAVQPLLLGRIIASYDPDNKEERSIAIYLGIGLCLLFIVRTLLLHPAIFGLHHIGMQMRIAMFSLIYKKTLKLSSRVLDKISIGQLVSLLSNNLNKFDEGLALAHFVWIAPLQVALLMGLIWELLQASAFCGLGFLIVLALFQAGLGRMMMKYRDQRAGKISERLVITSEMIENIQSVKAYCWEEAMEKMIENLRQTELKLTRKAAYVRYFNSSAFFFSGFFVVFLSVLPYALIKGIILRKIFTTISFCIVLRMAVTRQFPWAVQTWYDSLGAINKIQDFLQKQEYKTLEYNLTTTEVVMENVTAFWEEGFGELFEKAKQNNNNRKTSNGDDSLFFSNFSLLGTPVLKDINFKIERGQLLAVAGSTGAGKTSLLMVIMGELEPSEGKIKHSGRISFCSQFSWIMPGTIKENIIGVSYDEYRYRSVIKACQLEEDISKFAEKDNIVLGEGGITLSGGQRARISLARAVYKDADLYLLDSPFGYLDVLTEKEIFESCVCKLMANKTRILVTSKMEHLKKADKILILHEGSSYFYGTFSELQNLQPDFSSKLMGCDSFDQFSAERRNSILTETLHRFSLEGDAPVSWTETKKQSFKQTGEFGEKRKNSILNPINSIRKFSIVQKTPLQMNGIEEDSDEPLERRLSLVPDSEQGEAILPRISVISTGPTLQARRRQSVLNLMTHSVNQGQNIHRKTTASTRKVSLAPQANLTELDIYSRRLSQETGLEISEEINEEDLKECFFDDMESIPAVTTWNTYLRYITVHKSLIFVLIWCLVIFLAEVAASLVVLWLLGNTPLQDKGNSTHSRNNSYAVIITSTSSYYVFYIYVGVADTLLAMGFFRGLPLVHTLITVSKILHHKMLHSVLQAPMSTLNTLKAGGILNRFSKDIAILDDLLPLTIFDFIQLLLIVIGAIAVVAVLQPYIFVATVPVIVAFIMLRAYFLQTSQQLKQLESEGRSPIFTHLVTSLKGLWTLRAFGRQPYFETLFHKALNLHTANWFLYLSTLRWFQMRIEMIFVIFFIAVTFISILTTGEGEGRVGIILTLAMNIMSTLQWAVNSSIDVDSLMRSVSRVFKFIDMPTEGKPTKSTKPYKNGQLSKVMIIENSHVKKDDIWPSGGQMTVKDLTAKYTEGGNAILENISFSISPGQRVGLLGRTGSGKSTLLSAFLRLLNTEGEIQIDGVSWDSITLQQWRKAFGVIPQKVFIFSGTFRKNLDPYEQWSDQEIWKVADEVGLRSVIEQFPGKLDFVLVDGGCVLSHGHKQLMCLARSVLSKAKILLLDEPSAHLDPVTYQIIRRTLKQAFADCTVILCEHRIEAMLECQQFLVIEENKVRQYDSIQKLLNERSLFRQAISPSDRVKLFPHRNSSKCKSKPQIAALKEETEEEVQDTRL
# procedureText: Ussing chamber assay of CFTR-mediated short-circuit currents (identification of potentiator compounds)
# conditionParameters: potentiator incubated 18-24 hours at 37° C. in combination with 10 μM corrector, in the presence of 20% human serum, CFTR-mediated ISC
Give EC50 for every item shown.

[Q] Query: EC50; subject: `CC1(C)Cc2cc(CN3CCCCC[C@](O)(C(F)(F)F)C4=NN=C(O4)c4nc(c(C(F)(F)F)cc4N)C3=O)ccc2O1`
[A] < 0.5 µM

[Q] Query: EC50; subject: CN1CCCCCC(O)(C(F)(F)F)C2=NN=C(O2)c2nc(c(C(F)(F)F)cc2N)C1=O (single isomer, unassigned) [Compound 72]
[A] < 0.5 µM

[Q] Query: EC50; subject: N#CC1CCCCc2ccc(F)c(c2)C(O)(C(F)(F)F)C2=NN=C(O2)c2nc1c(C(F)(F)F)cc2N (single isomer, unassigned) [Compound 67]
[A] < 0.5 µM
